# System: Avena fatua (AVEFA)
# Procedure details: Glasshouse herbicidal test, pre- and post-emergence, percentage damage to the plant
# Format: in vivo
# Measurement parameters: post-emergence, 250 g/h, evaluated after 13 days
Recorded metric: AVEFA POST percentage damage caused to the plant (five-point scale)

Previously resolved entries follow.
Report measured AVEFA POST percentage damage caused to the plant (five-point scale); entry is CC#Cc1cc(C)c(C2C(=O)CC3(C=CN(C(=O)COC(F)F)CC3)CC2=O)c(C)c1 (stereo not drawn)
5 (5=80-100%)

Report measured AVEFA POST percentage damage caused to the plant (five-point scale); entry is CC#Cc1cc(C)c(C2C(=O)CC3(C=CN(C(=O)C4CC4)CC3)CC2=O)c(C)c1 (stereo not drawn)
5 (5=80-100%)

---
Report measured AVEFA POST percentage damage caused to the plant (five-point scale); entry is CC#Cc1cc(C)c(C2C(=O)CC3(C=CN(C(=O)c4ccccn4)CC3)CC2=O)c(C)c1 (stereo not drawn)
5 (5=80-100%)
